Biological target: T1, human RANK-L (human, UniProt O14788 140-317, limits assumed)
T1 sequence (looked up): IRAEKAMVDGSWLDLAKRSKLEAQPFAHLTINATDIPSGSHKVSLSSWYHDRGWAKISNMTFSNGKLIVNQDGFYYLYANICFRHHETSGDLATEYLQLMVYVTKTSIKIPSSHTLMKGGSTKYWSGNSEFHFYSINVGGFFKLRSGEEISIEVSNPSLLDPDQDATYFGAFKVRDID
Experiment: cell-based or functional assay
readout.label: RANK-L induced NF-kappaB activation (luciferase reporter, HEK293T cells), IC50 (nM)

binder | unit.symbol | reading
RANKL13 (VHH, not shown: small tags and cut ends) VHH: EVQLVESGGGLVQAGGSLRLSCAASGRTFRSYPMGWFRQAPGKEREFVASITGSGGSTYYADSVKGRFTISRDNAKNTVYLQMNSLRPEDTAVYSCAAYIRPDTYLSRDYRKYDYWGQGTQVTVSS | nM | 6.21
RANKL15 (VHH, not shown: small tags and cut ends) VHH: EVQLVESGGGLVQAGGSLRLSCAAAGGTFRNYVMGWFRQAPGKEREFVTAISTGGSWTGYVDSVKDRFTISRDNTKNTVYLQMASLKPEDTAVYYCAATTPATTYLPRSERQYDYWGQGTQVTVSS | nM | 10
RANKL18 (VHH, not shown: small tags and cut ends) VHH: EVQLVESGGGLVQAGGSLRLSCAASGRTFSRSAMGWFRQAPGKEREFVGFITGSGGTTYYGESVKGRFTISRDNAQNPVYLQMNSLKPEDTAVYYCGVYRRTYISSTYSESSEYDYWGQGTQVTVSS | nM | 15.2
RANKL3 (VHH, not shown: small tags and cut ends) VHH: EVQLVESGGKLVQAGGSLRLSCAVSGRTSSIYNMAWFRQGPGKGRESVGRIYWSDDNTYYADSVKGRFTISRDNATNTVYLQMNSLKPEDTAVYYCAGKTTKWSLEYDYWGQGTQVTVSS | nM | 8.32
